# measurement-target: T1, cynomolgus monkey C-MET on stably transfected CHO-K1 cells (cynomolgus monkey, UniProt A0M8R7 25-1381 (Papio anubis entry))
# T1 construct: also called cycMET; cyno C-MET+ CHO-K1 cells
# T1 sequence (A0M8R7 25-1381 S170N/I621T limits assumed): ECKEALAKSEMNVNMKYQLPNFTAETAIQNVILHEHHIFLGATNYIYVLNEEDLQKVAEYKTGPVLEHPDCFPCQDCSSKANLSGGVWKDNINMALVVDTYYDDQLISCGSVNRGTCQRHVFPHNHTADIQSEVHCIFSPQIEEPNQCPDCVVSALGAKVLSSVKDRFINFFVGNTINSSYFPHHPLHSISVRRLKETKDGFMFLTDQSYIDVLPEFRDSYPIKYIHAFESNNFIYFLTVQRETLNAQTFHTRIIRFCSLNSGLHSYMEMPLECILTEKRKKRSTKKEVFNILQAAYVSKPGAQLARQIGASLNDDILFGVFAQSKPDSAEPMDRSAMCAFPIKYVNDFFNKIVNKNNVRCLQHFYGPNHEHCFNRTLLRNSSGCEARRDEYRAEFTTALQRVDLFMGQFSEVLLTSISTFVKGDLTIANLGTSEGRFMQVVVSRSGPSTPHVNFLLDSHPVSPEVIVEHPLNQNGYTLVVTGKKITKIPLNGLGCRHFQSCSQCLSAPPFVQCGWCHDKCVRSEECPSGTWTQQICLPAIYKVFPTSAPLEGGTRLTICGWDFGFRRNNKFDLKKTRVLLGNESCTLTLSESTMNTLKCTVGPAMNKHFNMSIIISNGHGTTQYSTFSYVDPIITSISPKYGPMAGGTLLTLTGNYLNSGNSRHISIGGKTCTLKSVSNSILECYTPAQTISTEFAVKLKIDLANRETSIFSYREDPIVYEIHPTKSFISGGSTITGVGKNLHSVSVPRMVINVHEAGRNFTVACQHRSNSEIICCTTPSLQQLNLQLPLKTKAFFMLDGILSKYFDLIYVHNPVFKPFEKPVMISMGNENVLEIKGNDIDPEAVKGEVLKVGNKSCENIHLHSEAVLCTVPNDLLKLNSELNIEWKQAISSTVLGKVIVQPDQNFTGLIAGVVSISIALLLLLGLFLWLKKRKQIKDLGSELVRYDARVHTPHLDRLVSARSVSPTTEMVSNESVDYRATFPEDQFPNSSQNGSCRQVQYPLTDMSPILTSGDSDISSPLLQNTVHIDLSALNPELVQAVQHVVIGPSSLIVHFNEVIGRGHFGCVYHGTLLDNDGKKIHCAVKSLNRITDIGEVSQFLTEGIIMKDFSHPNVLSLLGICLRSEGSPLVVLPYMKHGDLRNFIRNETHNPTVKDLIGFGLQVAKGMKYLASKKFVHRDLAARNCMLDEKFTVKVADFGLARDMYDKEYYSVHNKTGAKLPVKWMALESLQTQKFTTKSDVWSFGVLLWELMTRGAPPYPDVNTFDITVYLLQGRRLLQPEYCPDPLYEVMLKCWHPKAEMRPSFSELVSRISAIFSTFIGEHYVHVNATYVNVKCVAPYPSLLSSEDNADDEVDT
# assay-protocol: flow cytometry, C-MET CHO-K1 cells
maximum MFI, fold over Isotype IgG4 background by entry:
parameter-measured: maximum MFI, fold over Isotype IgG4 background

binder	measured-value
MH7 (antibody, human IgG4, V domains shown) VH: QVQLVQSGAEVKKPGASVKVSCKASGYTFTSYTMHWVRQAPGQGLEWMGIINPSGGSTSYAQKFQGRVTMTRDTSTSTVYMELSSLRSEDTAVYYCARQEITTEFDYWGQGTLVTVSS VL: EIVLTQSPGTLSLSPGERATLSCRASQSVSSYANSYLHWYQQKPGQAPRLLIYRGSTRESGIPDRFSGSGSGTDFTLTISRLEPEDFAVYYCQQSKSEPLTFGGGTKVEIK	> 10 fold
MH6 (antibody, IgG4, V domains shown) VH: QVQLVQSGAEVKKPGASVKVSCKASGYTFTSYTMHWVRQAPGQGLEWMGWINPSGGSTSYAQKFQGRVTMTRDTSTSTVYMELSSLRSEDTAVYYCARQEITTEFDYWGQGTLVTVSS VL: EIVLTQSPGTLSLSPGERATLSCRASQSVSSYAQSYLHWYQQKPGQAPRLLIYRGSTRETGIPDRFSGSGSGTDFTLTISRLEPEDFAVYYCQQYGSSPLTFGGGTKVEIK	> 10 fold
07C10 (antibody, IgG4, V domains shown) VH: QVQLVQSGAEVKKPGASVKVSCKASGYIFTAYSMHWVRQAPGQGLEWMGIIKPSNGSTNYAQKFQGRVTMTRDTSTSTVYMELSSLRSEDTAVYYCARAEITTEFDYWGQGTLVTVSS VL: EIVLTQSPGTLSLSPGERATLSCRASQSVESYAQSYLHWYQQKPGQAPRLLIYRGSTRESGIPDRFSGSGSGTDFTLTISRLEPEDFAVYYCQQSKEEPLTFGGGTKVEIK	> 10 fold
MH9 (antibody, IgG4, V domains shown) VH: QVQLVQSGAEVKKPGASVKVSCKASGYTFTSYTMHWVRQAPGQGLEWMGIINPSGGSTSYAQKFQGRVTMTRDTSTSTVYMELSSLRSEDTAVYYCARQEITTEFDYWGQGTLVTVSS VL: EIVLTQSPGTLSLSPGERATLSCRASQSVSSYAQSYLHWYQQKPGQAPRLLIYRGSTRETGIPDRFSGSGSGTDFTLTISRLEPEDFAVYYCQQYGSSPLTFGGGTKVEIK	> 10 fold
MH3 (antibody, IgG4, V domains shown, also called MH03) VH: QVQLVQSGAEVKKPGASVKVSCKASGYTFTSYTMHWVRQAPGQGLEWMGWINPNGGSTSYAQKFQGRVTMTRDTSTSTVYMELSSLRSEDTAVYYCARQEITTEFDYWGQGTLVTVSS VL: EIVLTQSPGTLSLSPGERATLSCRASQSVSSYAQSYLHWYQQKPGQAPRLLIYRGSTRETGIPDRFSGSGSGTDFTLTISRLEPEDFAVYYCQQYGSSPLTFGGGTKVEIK	> 10 fold
08B12 (antibody, IgG4, V domains shown) VH: QVQLVQSGAEVKKPGASVKVSCKASGYIFTAYSMHWVRQAPGQGLEWMGWIKPNNGSTNYAQKFQGRVTMTRDTSTSTVYMELSSLRSEDTAVYYCARTEITTEFDYWGQGTLVTVSS VL: EIVLTQSPGTLSLSPGERATLSCRASQSVDSYANSYLHWYQQKPGQAPRLLIYRGSTRETGIPDRFSGSGSGTDFTLTISRLEPEDFAVYYCQQSKSDPLTFGGGTKVEIK	> 10 fold
MH11 (antibody, IgG4, V domains shown) VH: QVQLVQSGAEVKKPGASVKVSCKASGYTFTSYAMHWVRQAPGQGLEWMGWINPSGGSTSYAQKFQGRVTMTRDTSTSTVYMELSSLRSEDTAVYYCARQEITTEFDYWGQGTLVTVSS VL: EIVLTQSPGTLSLSPGERATLSCRASQSVSSYAQSYLHWYQQKPGQAPRLLIYRGSTRETGIPDRFSGSGSGTDFTLTISRLEPEDFAVYYCQQSGSSPLTFGGGTKVEIK	> 10 fold
h224G11 (humanized 224G11) (antibody, human IgG4, V domains shown, also called Humanized h224G11; 224G11 IgG4(S228P)) VH: QVQLVQSGAEVKKPGASVKVSCKASGYIFTAYTMHWVRQAPGQGLEWMGWIKPNNGLANYAQKFQGRVTMTRDTSISTAYMELSRLRSDDTAVYYCARSEITTEFDYWGQGTLVTVSS VL: DIVMTQSPDSLAVSLGERATINCKSSESVDSYANSFLHWYQQKPGQPPKLLIYRASTRESGVPDRFSGSGSGTDFTLTISSLQAEDVAVYYCQQSKEDPLTFGGGTKVEIK	> 10 fold
04F09 (antibody, IgG4, V domains shown) VH: QVQLVQSGAEVKKPGASVKVSCKASGYIFTSYSMHWVRQAPGQGLEWMGWINPSNGLANYAQKFQGRVTMTRDTSTSTVYMELSSLRSEDTAVYYCARQEITTEFDIWGQGTLVTVSS VL: EIVLTQSPGTLSLSPGERATLSCRASQSVESYAQSYLHWYQQKPGQAPRLLIYRGSTRESGIPDRFSGSGSGTDFTLTISRLEPEDFAVYYCQQSKSDPLTFGGGTKVEIK	> 10 fold
04E10 (antibody, IgG4, V domains shown) VH: QVQLVQSGAEVKKPGASVKVSCKASGYIFTSYTMHWVRQAPGQGLEWMGWIKPNNGSASYAQKFQGRVTMTRDTSTSTVYMELSSLRSEDTAVYYCARSEITTEEDYWGQGTLVTVSS VL: EIVLTQSPGTLSLSPGERATLSCRASQSVDSYANSYLHWYQQKPGQAPRLLIYRGSTRESGIPDRFSGSGSGTDFTLTISRLEPEDFAVYYCQQSKSEPLTFGGGTKVEIK	> 10 fold
